Catalogue of growth values
- System: RPMI-8226 leukemia
- assay-method-text: NCI-60 one-dose screen, 48 h (100 = growth as untreated, 0 = no growth, -100 = all killed)
- applied-conditions: 10 µM
This is part of a sample that, as a whole, favours compounds with a hit. Of some 83,000 tested, about 20% had one in any assay.
assay-readout: growth (%)

>>> numeric_result("Cc1ccc(N(CSc2ccc(Cl)cc2)CSc2ccc(Cl)cc2)cc1")
6.09
>>> numeric_result("O=C1NC(=S)S/C1=C\\c1cccc([N+](=O)[O-])c1")
62.8
>>> numeric_result("Clc1ccc(Nc2ccnc(N3CCN(c4ccnc5cc(Cl)ccc45)CC3)n2)cc1")
34.5
>>> numeric_result("CC(C)(C)[Si](C)(C)OC1[C@@H](O[Si](C)(C)C(C)(C)C)[C@@H](CNC(=O)NC(=O)C(F)(F)F)O[C@H]1n1cnc2c(NC(=O)Nc3ccccc3)ncnc21 (stereo partly specified)")
4.89
>>> numeric_result("O=c1onc(-c2ccccc2)c2ccccc12")
98.4
>>> numeric_result("CCOC(=O)c1[nH]c2cc(Cl)ccc2c1[C@@H](C(=O)NC(C)(C)C)N(CC)C(=O)CCCCC#Cc1cccc2c1CN(C1CCC(=O)NC1=O)C2=O (stereo partly specified)")
7.28
>>> numeric_result("O=C(N/N=C(\\CS(=O)(=O)c1ccccc1)c1cc2cc(Br)ccc2oc1=O)c1ccccc1")
121
>>> numeric_result("O=[N+]([O-])c1cc2c(cc1Br)-c1ccccc1C2")
80.7
>>> numeric_result("C[C@@H](Oc1cc(-c2cnn(C3CC4(CCNCC4)C3)c2)cnc1N)c1c(F)ccc(Cl)c1Cl")
-40.1
>>> numeric_result("C=C[C@H]1C[C@@H]2C[C@@H]3[C@H]4C/C=C\\C(=O)NCCCC5NC(=O)C(=C(O)/C=C/[C@@H]4CC(=O)[C@H]3[C@@H]2[C@H]1C)C5=O (stereo partly specified)")
-54.5
>>> numeric_result("O=C1/C(=C/c2ccc(Oc3ccccc3)cc2)N=C(c2ccccc2)N1CCc1cccs1")
69.7
